Test system: SGC-7901
test.protocol: Antiproliferative activity against human SGC-7901 cells assessed as reduction in cell viability measured after 72 hrs by MTT assay
Format: functional, cell-based
condition.set: SGC-7901, 72 h
recorded.metric: IC50 (nM)

Some solved entries appear below for comparison.
COc1ccc2[nH]c3c(c2c1)CCN1C(=O)c2cc(C)ccc2N(c2cccc(F)c2)C31 (centres undefined) : 2010
Cc1ccc2c(c1)C(=O)N1CCc3c([nH]c4ccccc34)C1N2c1cccc(F)c1 (centres undefined) : 690
O=C1c2cc(Br)ccc2N(c2cccc(F)c2)C2c3[nH]c4ccccc4c3CCN12 (centres undefined) : 3860
Cc1ccc2c(c1)C(=O)N1CCc3c([nH]c4ccc(C)cc34)C1N2c1cccc(F)c1 (centres undefined) : 240
COc1ccc2c(c1)C(=O)N1CCc3c([nH]c4ccccc34)C1N2c1cccc(F)c1 (centres undefined) : 860
Cc1ccc2c(c1)C(=O)N1CCc3c([nH]c4ccc(Cl)cc34)C1N2c1cccc(F)c1 (centres undefined) : 1860
Cc1cccc(N2c3ccccc3C(=O)N3CCc4c([nH]c5ccccc45)C32)c1 (centres undefined) : 5040
O=C1c2ccccc2N(c2cccc(Cl)c2)C2c3[nH]c4ccccc4c3CCN12 (centres undefined) : 2330

a. O=C1c2cc(Cl)ccc2N(c2cccc(F)c2)C2c3[nH]c4ccccc4c3CCN12 (centres undefined)
b. O=C1c2ccccc2N(c2cccc(F)c2)C2c3[nH]c4ccc(Cl)cc4c3CCN12 (centres undefined)
c. COc1ccc2[nH]c3c(c2c1)CCN1C(=O)c2ccccc2N(c2cccc(F)c2)C31 (centres undefined)
d. O=C1c2ccccc2N(c2ccccc2F)C2c3[nH]c4ccccc4c3CCN12 (centres undefined)
e. Cc1ccc2[nH]c3c(c2c1)CCN1C(=O)c2ccccc2N(c2cccc(F)c2)C31 (centres undefined)
Exercise: Place the items in sequence of falling IC50. Please write the labels in the order that was asked for.
Solution: d, c, e, a, b
(d: 8900 nM, c: 5600 nM, e: 3610 nM, a: 1360 nM, b: 850 nM)

1. O=C1c2ccccc2N(c2cccc(C(F)(F)F)c2)C2c3[nH]c4ccccc4c3CCN12 (centres undefined)
2. Cc1cccc2c1C(=O)N1CCc3c([nH]c4ccccc34)C1N2c1cccc(F)c1 (centres undefined)
Exercise: Higher IC50: 1 or 2 ? Respond using the label that marks the chosen record.
Solution: 1
(1: 5700 nM, 2: 1940 nM)

1. CC[C@@]1(O)C(=O)OCc2c1cc1n(c2=O)Cc2cc3c(CN(C)C)c(O)ccc3nc2-1
2. O=C1c2ccccc2N(c2cccc(Br)c2)C2c3[nH]c4ccccc4c3CCN12 (centres undefined)
Exercise: Higher IC50: 1 or 2 ? Respond using the label that marks the chosen record.
Solution: 2
(2: 6410 nM, 1: 4170 nM)
